- system.tested: Mu-type opioid receptor (Mus musculus)
- assay.overview: Antagonistic activity towards morphine induced mu-opioid receptor by mouse writhing assay at 1.25 mg/kg subcutaneously
- Type: functional, organism-based
- Set-up: dose 1.25 mg/kg
For each record, write down the corresponding AD50.
Give the value, in units of mg/kg, as a plain number.

Qu. For the compound CC(C)CCCCN1CC[C@@](C)(c2cccc(O)c2)[C@@H](C)C1 (stereo in doubt; 21) , give its measured AD50 value.
Ans. 0.58

Qu. Indicate its recorded AD50; the compound in question is CC(C)CCCCN1CC[C@@](C)(c2cccc(O)c2)[C@@H](C)C1 (stereo in doubt; 39)
Ans. 0.08

Qu. Give the reported AD50 for this compound. `C[C@@H]1CN(CCCc2cccs2)CC[C@]1(C)c1cccc(O)c1`
Ans. 0.24

Qu. Answer with the recorded AD50 for the compound listed here: C[C@H]1CN(CCC(O)C2CCCCC2)CC[C@@]1(C)c1cccc(O)c1 (some centres undefined)
Ans. 0.07

// provenance: ChEMBL document CHEMBL1127053
